Data origin: patent US9981912B2

Test: Solubility in pure water at 25° C. (Test Example 1)
Settings: pure water, 25 °C, water, thermodynamic from solid
Counter-ions that a name gives are not always drawn.
MEASUREMENT_NAME: solubility

Request: Value lookup for solubility; key = C[C@H]1CNCCc2ccc(Cl)cc21 [lorcaserin hydrochloride hemihydrate]
Result: > 200 mg/mL
